Source of measurements: patent US12331054B2

Provide the reported pIC50 of each item.
target: Recombinant human EIF2AK3 (PERK) catalytic domain (amino acids 536-1116) (Homo sapiens (Human))
method: PERK In Vitro Activity Assay (isolated), TR-FRET kinase assay
experimental-conditions: isolated PERK enzyme, 1.5 μM ATP, read-out: Biochemical IC50
pIC50: −log10 of the molar value.

Endpoint output: pIC50 of [2H]C([2H])([2H])c1nc(-c2ccc(NC(=O)C(O)c3cc(F)cc(C(F)(F)F)c3)cc2C)c2c(N)nc(C)cn12 (stereo not shown) [Example 53] . Value?
6.60 to 7.00

Next: [2H]C([2H])([2H])c1nc(-c2ccc(NC(=O)C(O)c3cccc(C(F)(F)F)c3)cc2C)c2c(N)ncc(C)n12 (stereo not shown) [Example 16]
5.70 to 6.00

Same lookup for Cc1cn2c(C)nc(-c3ccc(NC(=O)C(O)c4cccc(F)c4)c(F)c3F)c2c(N)n1 (stereo not shown) [Example 128] , please.
7.60 to 9.00

Consider next the compound [2H]C([2H])([2H])c1nc(-c2ccc(NC(=O)C(O)c3cc(F)cc(F)c3)cc2C)c2c(N)ncc(C(F)(F)F)n12 (stereo not shown) [Example 46] in the same way.
7.60 to 9.00

* * *

System: eIF2α in HEK293-EGFP-eIF2α cells
method: PERK Cellular Assay (HEK293-EGFP-eIF2α cells, tunicamycin-induced ER stress, TR-FRET)
Type: cell-based
experimental-conditions: tunicamycin 2 hours
pIC50: −log10 of the molar value.
I'd appreciate it if you could supply pIC50 values for the items below.

Record Cc1c(-c2nc(C)n3c(C)cnc(N)c23)ccc(NC(=O)C(O)c2cccc(F)c2)c1F (stereo not shown) [Example 169] : what is its pIC50 with eIF2α in HEK293-EGFP-eIF2α cells?
7.60 to 9.00

Query [2H]C([2H])([2H])c1nc(-c2ccc(NC(=O)C(O)c3cccc(Cl)c3)c(F)c2F)c2c(N)nc(C)cn12 (stereo not shown) [Example 141] next
6.00 to 6.30

Repeat with Cc1cc(F)cc(C(O)C(=O)Nc2ccc(-c3nc(C)n4c(C)cnc(N)c34)c(C)c2)c1 (stereo not shown) [Example 63]
7.00 to 7.29

Also, [2H]C([2H])([2H])c1nc(-c2ccc(NC(=O)C(O)c3cccc(F)c3)cc2F)c2c(N)ncc(C(F)(F)F)n12 (stereo not shown) [Example 77] please.
7.00 to 7.29

Would you kindly repeat that for [2H]C([2H])([2H])c1nc(-c2ccc(NC(=O)C(O)c3cccc(C(F)(F)F)c3)cc2F)c2c(N)nc(C)cn12 (stereo not shown) [Example 97] ?
6.30 to 6.60

Queued: Cc1cn2c(C3CC(C)(O)C3)nc(-c3ccc(NC(=O)C(O)c4cccc(F)c4)cc3C)c2c(N)n1 (stereo not shown) [Example 25]
5.70 to 6.00

Likewise for [2H]C([2H])([2H])c1nc(-c2cnc(NC(=O)C(O)c3cccc(C(F)(F)F)c3)cc2C)c2c(N)nc(C)cn12 (stereo not shown) [Example 182] ?
6.60 to 7.00

Also Cc1cnc(N)c2c(-c3ccc(NC(=O)C(O)c4cccc(F)c4)cc3F)nc(C)n12 (stereo not shown) [Example 70] ?
7.60 to 9.00

Now consider [2H]C([2H])([2H])c1nc(-c2ccc(NC(=O)C(O)c3cccc(Cl)c3)cc2F)c2c(N)nc(C)cn12 (stereo not shown) [Example 80] .
7.60 to 9.00

Request: CCc1cc(NC(=O)C(O)c2cccc(F)c2)ccc1-c1nc(C)n2c(C)cnc(N)c12 (stereo not shown) [Example 66]
7.30 to 7.59

Can you check Cc1cc(NC(=O)C(O)c2cccc(Cl)c2)ccc1-c1nc(C)n2c(C)cnc(N)c12 (stereo not shown) [Example 38] next?
7.60 to 9.00

// repeat for Cc1cc(NC(=O)C(O)c2cccc(F)c2)ccc1-c1nc(C)n2c(Cl)cnc(N)c12 (stereo not shown) [Example 28] and report
7.60 to 9.00

Can you check [2H]C([2H])([2H])c1nc(-c2ccc(NC(=O)C(O)c3cc(F)cc(F)c3)cc2C)c2c(N)ncc(C)n12 (stereo not shown) [Example 50] next?
7.60 to 9.00

Also Cc1cnc(N)c2c(-c3ccc(NC(=O)C(O)c4cccc(F)c4)c(F)c3)nc(C)n12 (stereo not shown) [Example 124] ?
6.00 to 6.30

Request: [2H]C([2H])([2H])c1nc(-c2ccc(NC(=O)C(O)c3cccc(C(F)(F)F)c3)cc2F)c2c(N)ncc(C)n12 (stereo not shown) [Example 94]
7.60 to 9.00

What would you report for Cc1cc(NC(=O)C(O)c2cc(F)cc(C(F)(F)F)c2)ccc1-c1nc(C)n2c(C)cnc(N)c12 (stereo not shown) [Example 58] ?
7.30 to 7.59

// next record [2H]C([2H])([2H])c1nc(-c2ccc(NC(=O)C(O)c3cccc(F)c3)c(F)c2F)c2c(N)ncc(C)n12 (stereo not shown) [Example 133]
6.60 to 7.00

Now give it for [2H]C([2H])([2H])c1nc(-c2ccc(NC(=O)C(O)c3cccc(C(F)(F)F)c3)cc2F)c2c(N)ncc(C)n12 (stereo not shown) [Example 95] too.
7.00 to 7.29

Would you kindly repeat that for [2H]C([2H])([2H])c1nc(-c2ccc(NC(=O)C(O)c3cc(F)cc(F)c3)c(F)c2F)c2c(N)ncc(C(F)(F)F)n12 (stereo not shown) [Example 159] ?
6.30 to 6.60

Repeat for the following molecule: [2H]C([2H])([2H])c1nc(-c2ccc(NC(=O)C(O)c3cc(F)cc(C(F)(F)F)c3)cc2F)c2c(N)nc(C)cn12 (stereo not shown) [Example 117]
6.30 to 6.60

Next entry: [2H]C([2H])([2H])c1nc(-c2ccc(NC(=O)C(O)c3cc(F)cc(F)c3)cc2C)c2c(N)nc(C)cn12 (stereo not shown) [Example 45]
5.70 to 6.00

Now this one: [2H]C([2H])([2H])c1nc(-c2ccc(NC(=O)C(O)c3cccc(C(F)(F)F)c3)cc2C)c2c(N)nc(C)cn12 (stereo not shown) [Example 14]
7.30 to 7.59

// repeat for [2H]C([2H])([2H])c1nc(-c2ccc(NC(=O)C(O)c3cccc(Cl)c3)cc2F)c2c(N)ncc(C(F)(F)F)n12 (stereo not shown) [Example 83] and report
7.00 to 7.29

Ok, now Cc1cnc(N)c2c(-c3ccc(NC(=O)C(O)c4cccc(F)c4)cc3OC(F)(F)F)nc(C)n12 (stereo not shown) [Example 126]
6.00 to 6.30

Also [2H]C([2H])([2H])c1nc(-c2ccc(NC(=O)C(O)c3cc(F)cc(F)c3)c(F)c2F)c2c(N)ncc(C)n12 (stereo not shown) [Example 155] , if possible.
7.00 to 7.29

Further, for [2H]C([2H])([2H])c1nc(-c2ccc(NC(=O)C(O)c3cc(F)cc(F)c3)cc2C)c2c(N)ncc(C(F)(F)F)n12 (stereo not shown) [Example 46] ?
7.30 to 7.59

Try this molecule too: [2H]C([2H])([2H])c1nc(-c2ccc(NC(=O)C(O)c3cccc(Cl)c3)c(F)c2F)c2c(N)ncc(Cl)n12 (stereo not shown) [Example 144]
7.00 to 7.29

Thanks! And [2H]C([2H])([2H])c1nc(-c2ccc(NC(=O)C(O)c3cccc(Cl)c3)cc2C)c2c(N)ncc(Cl)n12 (stereo not shown) [Example 43] ?
7.30 to 7.59

* * *

Can you tell me IC50 for the items I'm about to list?
target: Recombinant human EIF2AK3 (PERK) catalytic domain (amino acids 536-1116) (Homo sapiens (Human), UniProt Q9NZJ5)
Sequence (Q9NZJ5 536-1116): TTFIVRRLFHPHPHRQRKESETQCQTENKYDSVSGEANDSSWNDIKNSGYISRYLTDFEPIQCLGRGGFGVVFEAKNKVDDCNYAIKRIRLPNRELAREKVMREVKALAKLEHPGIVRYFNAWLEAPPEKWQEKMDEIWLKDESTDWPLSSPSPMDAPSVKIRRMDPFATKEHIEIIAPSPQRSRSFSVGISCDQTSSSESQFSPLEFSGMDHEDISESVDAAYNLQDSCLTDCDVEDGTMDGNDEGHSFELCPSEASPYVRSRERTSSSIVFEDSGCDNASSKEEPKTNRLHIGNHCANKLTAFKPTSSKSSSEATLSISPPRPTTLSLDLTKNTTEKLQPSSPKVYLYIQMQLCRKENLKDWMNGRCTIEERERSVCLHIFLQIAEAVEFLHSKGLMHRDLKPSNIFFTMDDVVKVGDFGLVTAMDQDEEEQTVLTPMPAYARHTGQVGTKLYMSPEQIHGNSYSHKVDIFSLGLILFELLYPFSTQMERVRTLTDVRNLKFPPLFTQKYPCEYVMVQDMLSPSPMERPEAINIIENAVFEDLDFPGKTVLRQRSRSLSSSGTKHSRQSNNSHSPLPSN
method: PERK In Vitro Activity Assay (isolated), TR-FRET kinase assay
experimental-conditions: isolated PERK enzyme, 1.5 μM ATP, read-out: Biochemical IC50

Look at this compound and give its reported IC50. [2H]C([2H])([2H])c1nc(-c2ccc(NC(=O)C(O)c3cc(F)cc(F)c3)cc2C)c2c(N)nc(C)cn12 (stereo not shown) [Example 44]
1 to 25 nM

Consider next the compound [2H]C([2H])([2H])c1nc(-c2ccc(NC(=O)C(O)c3cccc(C(F)(F)F)c3)cc2F)c2c(N)nc(C)cn12 (stereo not shown) [Example 96] in the same way.
1 to 25 nM

Same for [2H]C([2H])([2H])c1nc(-c2ccc(NC(=O)C(O)c3cccc(Cl)c3)cc2C)c2c(N)nc(C)cn12 (stereo not shown) [Example 34]
1 to 25 nM

Moving on to [2H]C([2H])([2H])c1nc(-c2ccc(NC(=O)C(O)c3cc(F)cc(F)c3)cc2C)c2c(N)ncc(C)n12 (stereo not shown) [Example 50]
1 to 25 nM

Same for [2H]C([2H])([2H])c1nc(-c2ccc(NC(=O)C(O)c3cccc(F)c3)c(F)c2F)c2c(N)ncc(C(F)(F)F)n12 (stereo not shown) [Example 135]
101 to 250 nM

Next record, please: [2H]C([2H])([2H])c1nc(-c2ccc(NC(=O)C(O)c3cc(F)cc(C(F)(F)F)c3)cc2F)c2c(N)ncc(C)n12 (stereo not shown) [Example 110]
1 to 25 nM

Next record, please: [2H]C([2H])([2H])c1nc(-c2ccc(NC(=O)C(O)c3cccc(F)c3)nc2C)c2c(N)ncc(C)n12 (stereo not shown) [Example 173]
1 to 25 nM
